Entries annotated with measured pEC50
- System: TFEB
- assay details: TFEB nuclear translocation assay
- Type: cell-based
- condition set: Homo sapiens; HeLa wt or HeLa TRPML1 KO cells, treated for 2 hrs; ratio of nuclear to ring-region TFEB intensity
pEC50: −log10 of the molar value.

These solved cases illustrate the format of a correct answer.
1. O=S(=O)(c1ccc2c(c1)COC2)N1CC2(CCCC2)c2ccccc21    ≤ 5.00
2. CN(C)S(=O)(=O)c1ccc(S(=O)(=O)N2CC3(CCN(C4CCOC4)CC3)c3ccccc32)cc1 (centres unmarked)    5.10 to 5.70

// molecule `COC(C)(C)c1ccc(S(=O)(=O)N2CC3(CCCC3)c3ccccc32)cc1` , assay TFEB, pEC50 value: ≤ 5.00

The reported pEC50 value, TFEB, for `O=S(=O)(c1ccc(C(F)F)cc1)N1CC2(CCN(Cc3ccccc3)CC2)c2ccccc21` reads ≥ 5.70

----------
- System: THP-1 cells
- assay details: Lamp1 lysosomal exocytosis assay
- Format: cell-based
- condition set: Homo sapiens, 55 min, 55 min incubation, top dose 20 μM
pEC50: −log10 of the molar value.
attribute measured: pEC50

1. O=C(NCc1ccccc1)C1CCC2(CC1)CN(S(=O)(=O)c1ccc(C(F)F)cc1)c1ccccc12 (stereo not shown) [Compound I-143]    ≤ 5.30
2. O=C(OCc1ccccc1)N1CCC2(CC1)CN(S(=O)(=O)c1ccc(C(F)F)cc1)c1cccnc12 [Compound I-134]    ≥ 6.30
3. O=S1(=O)CCC2(CC1)CN(S(=O)(=O)c1ccc(C(F)F)cc1)c1ccccc12 [Compound I-152]    ≤ 5.30
4. Cc1cccc(S(=O)(=O)N2CC3(CCCC3)c3ccccc32)c1 [Compound I-74]    ≤ 5.30
5. CC1(C)COc2ccc(S(=O)(=O)N3CC4(CCCC4)c4ccccc43)cc21 [Compound I-5]    ≤ 5.30
6. CS(=O)(=O)c1ccc(S(=O)(=O)N2CC3(CCN(C(=O)OCc4ccccc4)CC3)c3ccccc32)cc1 [Compound I-180]    ≥ 6.30
7. O=C(NC1COc2ccccc2C1)N1CCC2(CC1)CN(S(=O)(=O)c1ccc(C(F)F)cc1)c1ccccc12 (stereo not shown) [Compound I-222]    ≤ 5.30
8. O=C(NC1CCOCC1)N1CCC2(CC1)CN(S(=O)(=O)c1ccc(C(F)F)cc1)c1ccccc12 [Compound I-205]    ≤ 5.30
9. Cn1cc(NC(=O)N2CCC3(CC2)CN(S(=O)(=O)c2ccc(C(F)F)cc2)c2ccccc23)c(=O)n(C)c1=O [Compound I-229]    ≤ 5.30
10. O=C(OCc1ccccc1)N1CCC2(CC1)CN(S(=O)(=O)Cc1ccc(C(F)F)cc1)c1ccccc12 [Compound I-250]    ≥ 6.30

// field: pEC50; key: Cc1ccc2c(c1)N(S(=O)(=O)c1ccc(S(=N)(=O)N(C)C)cc1)CC21CCCCC1 (stereo not shown) [Compound I-149] ; value = ≥ 6.30

Per the record, O=C(OCC1CC1)N1CCC2(CC1)CN(S(=O)(=O)c1ccc(C(F)F)cc1)c1ccccc12 [Compound I-170] has pEC50 of 6.00 to 6.29

In plain terms, O=C(OCc1ccccn1)N1CCC2(CC1)CN(S(=O)(=O)c1ccc(C(F)F)cc1)c1ccccc12 [Compound I-141] has a documented pEC50 of 5.30 to 6.00

----------
- Tested on: THP-1 cells
- assay details: Lamp1 lysosomal exocytosis assay
- Format: cell-based
- condition set: Homo sapiens, 55 min, 55 min incubation, top dose 20 μM
pEC50: −log10 of the molar value.
Listed molecules paired with reported pEC50

1) Cc1noc(C)c1NC(=O)N1CCC2(CC1)CN(S(=O)(=O)c1ccc(C(F)F)cc1)c1ccccc12    ≤ 5.30
2) O=C(OCc1ccccc1)N1CCC2(CC1)CN(S(=O)(=O)c1ccc(C(F)(F)F)nc1)c1ccccc12    6.00 to 6.29
3) CC(C)S(=O)(=O)c1ccc(S(=O)(=O)N2CC3(CCN(C(=O)OCc4ccccc4)CC3)c3ccccc32)cc1    ≥ 6.30

# pEC50 (molecule: `O=C(OCc1ccccc1)N1CCC2(CC1)CN(S(=O)(=O)c1ccc3c(c1)CCS3(=O)=O)c1ccccc12` ) is ≤ 5.30

Consider `O=C(Cc1ccccc1)N1CCC2(CC1)CN(S(=O)(=O)c1ccc(C(F)F)cc1)c1ccccc12` . Its measured pEC50 is ≤ 5.30

Note to self: pEC50 recorded for CN(C)S(=N)(=O)c1ccc(S(=O)(=O)N2CC3(CCCCC3)c3ccccc32)cc1 (stereo not shown) was 6.00 to 6.29

// field: pEC50; key: `O=C(CCc1ccccc1)N1CCC2(CC1)CN(S(=O)(=O)c1ccc(C(F)F)cc1)c1ccccc12` ; value = ≥ 6.30

----------
- System: THP-1 cells
- assay details: Lamp1 lysosomal exocytosis assay
- Format: cell-based
- condition set: Homo sapiens, 55 min, 55 min incubation, top dose 20 μM
Reported values of EC50 for individual entries

# example entries with known answers
1) O=C(OCc1ccccc1)N1CCC2(CC1)CN(S(=O)(=O)c1ccc(C(F)F)cc1)c1cc(F)ccc12 [Compound I-131]    ≥ 5010 nM
2) CN(C)S(=O)(=O)c1ccc(S(=O)(=O)N2CC3(CCN(CC(C)(F)F)CC3)c3ccccc32)cc1 [Compound I-97]    510 to 1000 nM
3) CN(Cc1ccccc1)C(=O)C1CCC2(CC1)CN(S(=O)(=O)c1ccc(C(F)F)cc1)c1ccccc12 (stereo not shown) [Compound I-235]    ≥ 5010 nM

GET /value?item= O=C(OCc1cccnc1)N1CCC2(CC1)CN(S(=O)(=O)c1ccc(C(F)F)cc1)c1ccccc12 [Compound I-158] &field=EC50 returns 510 to 1000 nM

----------
- Tested on: TFEB
- assay details: TFEB nuclear translocation assay
- Assay type: cell-based
- condition set: Homo sapiens; HeLa wt or HeLa TRPML1 KO cells, treated for 2 hrs; ratio of nuclear to ring-region TFEB intensity
pEC50: −log10 of the molar value.
attribute measured: pEC50

Item Cc1ccc(S(=O)(=O)N2CC3(CCCC3)c3ccccc32)cc1 [Compound I-13] ; assay system TFEB; pEC50 reported as ≤ 5.00

So the reported pEC50 for CC(CS(=O)(=O)N1CC2(CCCC2)c2ccccc21)c1ccccc1 (stereo not shown) [Compound I-117] , on TFEB, turned out to be ≤ 5.00

The recorded pEC50 with TFEB for CN(C)S(=O)(=O)c1ccc(S(=O)(=O)N2CC3(CCN(CC(F)(F)F)CC3)n3nccc32)cc1 [Compound I-144] was ≤ 5.00

// molecule CN(C)S(=O)(=O)c1ccc(S(=O)(=O)N2CC3(CCCCC3)n3nc(C(F)(F)F)cc32)cc1 [Compound I-153] , assay TFEB, pEC50 value: ≥ 5.70

----------
- Test system: TFEB
- assay details: TFEB nuclear translocation assay
- Type: cell-based
- condition set: Homo sapiens; HeLa wt or HeLa TRPML1 KO cells, treated for 2 hrs; ratio of nuclear to ring-region TFEB intensity
A collection of compounds and their measured EC50

So, CN1CCC2(C1)CN(S(=O)(=O)c1ccc(S(=O)(=O)N(C)C)cc1)c1ccccc12 (stereo not drawn) [Compound I-90] ? Its EC50 was ≥ 10 µM

Memo: O=S(=O)(c1ccc(C(F)F)cc1)N1CC2(CCN(Cc3ccccn3)CC2)c2ccccc21 [Compound I-164] , reported EC50: ≤ 2 µM

The recorded EC50 for entry O=C(OCc1ccccc1)N1CCC2(CC1)CN(C(=O)Nc1ccc(C(F)F)cc1)c1ccccc12 [Compound I-247] equals ≥ 10 µM

EC50 recorded for this compound, CN(Cc1ccccc1)C(=O)C1CCC2(CC1)CN(S(=O)(=O)c1ccc(C(F)F)cc1)c1ccccc12 (stereo not drawn) [Compound I-235] , is ≤ 2 µM

In plain terms, CC(C)(O)c1cccc(S(=O)(=O)N2CC3(CCCC3)c3ccccc32)c1 [Compound I-61] has a documented EC50 of ≥ 10 µM

Data point: Cc1cc2n(n1)C1(CCCCC1)CN2S(=O)(=O)c1ccc(S(=O)(=O)N(C)C)cc1 [Compound I-123] ; EC50 = 2.01 to 8 µM

----------
- Test system: TFEB
- assay details: TFEB nuclear translocation assay
- Assay type: cell-based
- condition set: Homo sapiens; HeLa wt or HeLa TRPML1 KO cells, treated for 2 hrs; ratio of nuclear to ring-region TFEB intensity
attribute measured: EC50

These solved cases illustrate the format of a correct answer.
1. O=C(OCC1CC1)N1CCC2(CC1)CN(S(=O)(=O)c1ccc(C(F)F)cc1)c1ccccc12    ≤ 2 µM
2. O=C(Nc1ccc2c(c1)OCO2)N1CCC2(CC1)CN(S(=O)(=O)c1ccc(C(F)F)cc1)c1ccccc12    2.01 to 8 µM
3. O=S(=O)(C1=Cc2ccccc2CC1)N1CC2(CCCC2)c2ccccc21    2.01 to 8 µM

Query molecule follows.
Noted for CN(C)S(=N)(=O)c1ccc(S(=O)(=O)N2CC3(CCCCC3)c3ccccc32)cc1 (stereo not shown) : its EC50 reads ≤ 2 µM
